B1: HDV Ribozyme (parent)
chain: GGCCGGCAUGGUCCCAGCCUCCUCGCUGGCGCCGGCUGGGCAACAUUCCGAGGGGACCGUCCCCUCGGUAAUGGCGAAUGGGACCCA

Variants of: B1
PROTOCOL: self-cleavage, relative activity (ratio to wild type); higher = more cleavage; co-transcriptional
Classification field: Fulfilled = self-cleavage at or over 0.6; Not fulfilled = self-cleavage under 0.6.

Would you please look over these solved cases?
MUTATION_DESCRIPTOR: C19A C21U
ASSIGNED_LABEL: Not fulfilled

MUTATION_DESCRIPTOR: A8U C24G
ASSIGNED_LABEL: Not fulfilled

MUTATION_DESCRIPTOR: C4A A42G
ASSIGNED_LABEL: Not fulfilled

MUTATION_DESCRIPTOR: C44U A78C
ASSIGNED_LABEL: Not fulfilled

MUTATION_DESCRIPTOR: C7G C32A
ASSIGNED_LABEL: Not fulfilled

MUTATION_DESCRIPTOR: A16G U46C
ASSIGNED_LABEL: Not fulfilled

Check this variant for self-cleavage at or above 0.6: G31U C75U
Not fulfilled

Check this variant for self-cleavage at or above 0.6: G31A G52C
Fulfilled

Measured values drawn from the RNAGym collection of RNA variant scans (doi:10.7554/elife.80360) for this set.
